- Test system: MEKK2 (MAP3K2) mutant PB1 domain binding MEK5, human
- METHOD: mutant MEKK2 PB1-MEK5 binding signal retest – biochemical, single concentration, multiplex bead flow cytometry, confirmation (AID 1893);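 note: higher means compound restores mutant binding toward wildtype level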
- TEST_CONTEXT: Alexa488-MEK5 binding to MEKK2 mutant, at 10 µM, hits give high values
The campaign covered roughly 5,900 compounds. About 120 (2%) were called active. The list is a sample of the results.

>  <COMPOUND>
COc1cc(-c2nc(-c3ccncc3)no2)cc(OC)c1OC

>  <percent response / %>
6

$$$$
>  <COMPOUND>
O=C(NC1CCN(Cc2ccccc2)CC1)c1cc(Br)c(Br)[nH]1

>  <percent response / %>
18

$$$$
>  <COMPOUND>
O=c1c(/C=N/O)coc2ccc(Cl)cc12

>  <percent response / %>
-2

$$$$
>  <COMPOUND>
O=C(O)CC(Cc1ccccc1)C(=O)Nc1ccc([N+](=O)[O-])cc1 (stereo unspecified)

>  <percent response / %>
-3

$$$$
>  <COMPOUND>
CCc1nnc(NC(=O)c2sc3nc(C)cc(COC)c3c2N)s1

>  <percent response / %>
7

$$$$
>  <COMPOUND>
CCOC(=O)c1cc2c(nc1NC(=S)Nc1ccccc1)CC(C)(CC)OC2 (stereo unspecified)

>  <percent response / %>
-4

$$$$
>  <COMPOUND>
COc1ccc(C(=O)C[n+]2ccc(C)cc2)cc1

>  <percent response / %>
6

$$$$
>  <COMPOUND>
CCN1CCN(c2ccc(S(=O)(=O)N3CCCCC3)cc2NC(=O)Cc2c(Cl)cccc2Cl)CC1

>  <percent response / %>
20

$$$$
>  <COMPOUND>
CC(C)(C)NC(=O)Cn1cnc([N+](=O)[O-])n1

>  <percent response / %>
-7

$$$$
>  <COMPOUND>
CC(C)CC(=O)N1CCN(Cc2ccccc2Br)CC1

>  <percent response / %>
3

$$$$
>  <COMPOUND>
O=C(NC1CCN(Cc2ccccc2)CC1)c1ccc(Oc2cc(Cl)cc(Cl)c2)o1

>  <percent response / %>
10

$$$$

====

- Test system: MEKK2 (MAP3K2) mutant PB1 domain binding MEK5, human
- METHOD: mutant MEKK2 PB1-MEK5 binding signal retest – biochemical, single concentration, multiplex bead flow cytometry, confirmation (AID 1893);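 note: higher means compound restores mutant binding toward wildtype level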
- TEST_CONTEXT: Alexa488-MEK5 binding to MEKK2 mutant, at 10 µM, hits give high values
Hit rate of the full screen: of about 5,900 compounds, about 120 (2%) were called active. Only a sample is shown.

>  <COMPOUND>
O=C(c1ccco1)N1CCN(c2cccc(Cl)c2)CC1

>  <percent response>
0% (inactive)

$$$$
>  <COMPOUND>
O=C(COC(=O)CNC(=O)c1ccco1)Nc1ccc(F)cc1

>  <percent response>
1% (inactive)

$$$$
>  <COMPOUND>
C=C(C)C1CC=C(C)/C(=N\NC(=O)CNc2ccccc2OC)C1 (stereo unspecified)

>  <percent response>
10% (inactive)

$$$$
>  <COMPOUND>
N/C(=N\OS(=O)(=O)c1cccc([N+](=O)[O-])c1)c1ccncc1

>  <percent response>
3% (inactive)

$$$$
>  <COMPOUND>
C=CCN(CC=C)S(=O)(=O)c1ccc(C(=O)Nc2sc3c(c2C(N)=O)CCCCC3)cc1

>  <percent response>
1% (inactive)

$$$$
>  <COMPOUND>
COc1ccc(CCn2c(NN=C3CCCC3)nc3c2c(=O)[nH]c(=O)n3C)cc1

>  <percent response>
3% (inactive)

$$$$
>  <COMPOUND>
O=C(O)c1cc(Cl)c(Cl)cc1C(=O)Nc1cccc2ncccc12

>  <percent response>
-2% (inactive)

$$$$
>  <COMPOUND>
C/C(=N\NC(=O)CNC(=O)C(c1ccccc1)c1ccccc1)c1ccc(C)cc1

>  <percent response>
7% (inactive)

$$$$
>  <COMPOUND>
CCOC(=O)c1sc2nc(C)nc(SCC(N)=O)c2c1C

>  <percent response>
5% (inactive)

$$$$
>  <COMPOUND>
Cc1cc(Cl)ccc1OCc1nc(-c2ccncc2)no1

>  <percent response>
-15% (inactive)

$$$$
>  <COMPOUND>
Cc1ccc(N(CCC(=O)O)S(=O)(=O)c2cccc(C(F)(F)F)c2)cc1

>  <percent response>
1% (inactive)

$$$$
